Test system: Chilo suppressalis (Striped Rice Stemborer)
Experiment: Activity against Chilo suppressalis (striped rice stemborer), treated artificial diet
Format: in vivo
Conditions: 144 h, application rate 200 ppm, L2 larvae, 6 days after infestation
Recorded measurements of percent control (mortality, anti-feedant effect or growth inhibition) at 200 ppm, one per entry
Assay Metric: percent control (mortality, anti-feedant effect or growth inhibition) at 200 ppm

Structure Smiles String: CCS(=O)(=O)c1c(N2Cc3ccc(S(=O)(=O)C(F)(F)F)cc3C2=O)nc2cc(C(F)(F)F)ccn12
Study System: Chilo suppressalis (Striped Rice Stemborer)
Measurement: ≥ 80%
--
Structure Smiles String: CCS(=O)(=O)c1c(N2Cc3ncc(C(F)(F)F)cc3C2=O)nc2ccc(OCC(F)F)cn12
Study System: Chilo suppressalis (Striped Rice Stemborer)
Measurement: ≥ 80%
--
Structure Smiles String: CCS(=O)(=O)c1c(N2Cc3ccc(S(=O)(=O)C(F)(F)F)cc3C2=O)nc2ccc(C(F)(F)F)cn12
Study System: Chilo suppressalis (Striped Rice Stemborer)
Measurement: ≥ 80%

* * *

Reported percent control (mortality, anti-feedant effect or growth inhibition) at 200 ppm values are given for each entry in this list.
Test system: Chilo suppressalis (Striped Rice Stemborer)
Experiment: Activity against Chilo suppressalis (striped rice stemborer), treated artificial diet
Assay type: in vivo
Conditions: 144 h, application rate 200 ppm, L2 larvae, 6 days after infestation
Assay Metric: percent control (mortality, anti-feedant effect or growth inhibition) at 200 ppm

Structure Smiles String: CCS(=O)(=O)c1c(N2Cc3ncc(C(F)(F)F)cc3C2=O)nc2cc(Br)ccn12
Measurement: ≥ 80%
--
Structure Smiles String: CCS(=O)(=O)c1c(N2Cc3ncc(C(F)(F)F)cc3C2=O)nc2ccc(OCC(F)(F)F)cn12
Measurement: ≥ 80%
--
Structure Smiles String: CCS(=O)(=O)c1c(N2Cc3ncc(C(F)(F)F)cc3C2=O)nc2cc(C)ccn12
Measurement: ≥ 80%
--
Structure Smiles String: CCS(=O)(=O)c1c(N2Cc3ccc(OC(F)(F)F)cc3C2=O)nc2ccc(C(C)(F)F)cn12
Measurement: ≥ 80%
